Sourced from ChEMBL document CHEMBL5126638

# Tested on: MCF7
# assay.summary: Enhancement of 0.4 uM vinblastine-induced cytotoxicity in human MCF7 cells assessed as growth inhibition level at 25 uM after 48 hrs by Microscopic visualization based assay
# Assay type: functional, cell-based
Calls of active or inactive are those of the source. The rule behind the calls is not given here.
measure: Activity

CCCCCCCCCC(=O)O[C@H]1[C@H](O[C@@H]2[C@@H](O)[C@@H](O)[C@H](O[C@H]3[C@H](O[C@@H](CCCCC)CCCCCCCCCC(=O)OC)O[C@H](C)[C@H](O)[C@@H]3O)O[C@H]2C)O[C@@H](C)[C@H](O[C@@H]2O[C@@H](C)[C@H](O)[C@@H](O)[C@H]2O)[C@H]1O[C@@H]1O[C@H](CO)[C@@H](O)[C@H](O)[C@H]1O; Active
CCCCCCCCCC(=O)O[C@H]1[C@H](O[C@@H]2[C@H]3OC(=O)CCCCCCCCC[C@H](CCCCC)O[C@@H]4O[C@H](C)[C@H](O)[C@H](O)[C@H]4O[C@H](O[C@H]2C)[C@@H]3O)O[C@@H](C)[C@H](O[C@@H]2O[C@@H](C)[C@H](O)[C@@H](O)[C@H]2O)[C@H]1O[C@@H]1O[C@H](CO)[C@@H](O)[C@H](O)[C@H]1O; Active
CCCCCCCCCCCC(=O)O[C@H]1[C@H](O[C@@H]2[C@H]3OC(=O)CCCCCCCCC[C@H](CCCCC)O[C@@H]4O[C@H](C)[C@H](O)[C@H](O)[C@H]4O[C@H](O[C@H]2C)[C@@H]3O)O[C@@H](C)[C@H](O[C@@H]2O[C@@H](C)[C@H](O)[C@@H](O)[C@H]2O)[C@H]1O[C@@H]1O[C@H](CO)[C@@H](O)[C@H](O)[C@H]1O; Active

----------
# System: MCF7
# assay.summary: Enhancement of 0.003 uM vinblastine-induced cytotoxicity in human MCF7 cells assessed as growth inhibition level after 48 hrs by SRB assay
# Format: functional, cell-based
# condition: MCF7, 48 h
measure: pIC50
Just the number, please; pIC50 means minus log10 of the concentration in mol/L.

For the compound CCCCCCCCCCCC(=O)O[C@H]1[C@H](O[C@@H]2[C@@H](O)[C@@H](O)[C@H](O[C@H]3[C@H](O[C@@H](CCCCC)CCCCCCCCCC(=O)OC)O[C@H](C)[C@H](O)[C@@H]3O)O[C@H]2C)O[C@@H](C)[C@H](O[C@@H]2O[C@@H](C)[C@H](O)[C@@H](O)[C@H]2O)[C@H]1O[C@@H]1O[C@H](CO)[C@@H](O)[C@H](O)[C@H]1O , what pIC50 is on record? 5.36

----------
# System: MCF7-VP
# assay.summary: Enhancement of 0.003 uM vinblastine-induced cytotoxicity in human MCF7/Vin cells assessed as growth inhibition level after 48 hrs by SRB assay
# Type: functional, cell-based
Listing: pIC50 of selected compounds
Just the number, please; pIC50 means minus log10 of the concentration in mol/L.

Examples with their reported pIC50 follow.
CCCCCCCCCC(=O)O[C@H]1[C@H](O[C@@H]2[C@@H](O)[C@@H](O)[C@H](O[C@H]3[C@H](O[C@@H](CCCCC)CCCCCCCCCC(=O)OC)O[C@H](C)[C@H](O)[C@@H]3O)O[C@H]2C)O[C@@H](C)[C@H](O[C@@H]2O[C@@H](C)[C@H](O)[C@@H](O)[C@H]2O)[C@H]1O[C@@H]1O[C@H](CO)[C@@H](O)[C@H](O)[C@H]1O; 5.00
CCCCCCCCCCCC(=O)O[C@H]1[C@H](O[C@@H]2[C@@H](O)[C@@H](O)[C@H](O[C@H]3[C@H](O[C@@H](CCCCC)CCCCCCCCCC(=O)OC)O[C@H](C)[C@H](O)[C@@H]3O)O[C@H]2C)O[C@@H](C)[C@H](O[C@@H]2O[C@@H](C)[C@H](O)[C@@H](O)[C@H]2O)[C@H]1O[C@@H]1O[C@H](CO)[C@@H](O)[C@H](O)[C@H]1O; 5.51
CCCCCCCCCCCC(=O)O[C@H]1[C@H](O[C@@H]2[C@H]3OC(=O)CCCCCCCCC[C@H](CCCCC)O[C@@H]4O[C@H](C)[C@H](O)[C@H](O)[C@H]4O[C@H](O[C@H]2C)[C@@H]3O)O[C@@H](C)[C@H](O[C@@H]2O[C@@H](C)[C@H](O)[C@@H](O)[C@H]2O)[C@H]1O[C@@H]1O[C@H](CO)[C@@H](O)[C@H](O)[C@H]1O; 4.74

Now examine the next entry.
For the compound CCCCCCCCCC(=O)O[C@H]1[C@H](O[C@@H]2[C@H]3OC(=O)CCCCCCCCC[C@H](CCCCC)O[C@@H]4O[C@H](C)[C@H](O)[C@H](O)[C@H]4O[C@H](O[C@H]2C)[C@@H]3O)O[C@@H](C)[C@H](O[C@@H]2O[C@@H](C)[C@H](O)[C@@H](O)[C@H]2O)[C@H]1O[C@@H]1O[C@H](CO)[C@@H](O)[C@H](O)[C@H]1O , what pIC50 is on record? 4.71
